Measured values drawn from PubChem BioAssay (NCI) for this set.

system: NCI-H460 lung; experiment: NCI-60 one-dose screen, 48 h (100 = growth as untreated, 0 = no growth, -100 = all killed); conditions: 10 µM unless noted
This is part of a sample that, as a whole, favours compounds with a hit. Of some 83,000 tested, about 20% had one in any assay.
recorded_metric: growth (%)
The reply should contain only the number, in %.

Example entries begin here.
                                   molecule  result_value
0       CN(C)CC/C=C1\c2ccccc2Sc2ccc(Cl)cc21          77.2
1  COCCNC(C(=O)c1ccccc1)c1ccccc1 (stereo unspecified)           108
2  COc1ccc(-c2nnc(NC(=O)CN3CCN(c4cc5c(cc4F)c(=O)c(C(=O)O)cn5C4CC4)CC3)s2)cc1OC           101
3            Cc1ccc2c(c1)Nc1ccc(C)cc1C2(C)C           109
4  O=S(=O)(Nc1cccc2cc(OS(=O)(=O)c3ccccc3)ccc12)c1ccccc1          29.7
5  CC(C)(C)OC(=O)N1CCN(CCn2cc(C(F)(F)F)c3c(Cl)ncnc32)CC1          59.3
6    NC(=NCCCOc1ccc(F)cc1)Nc1ccc(Cl)c(Cl)c1          74.3
7  O=C(Nc1cccc(-n2ccc3c(NC(=O)c4ccccc4)nccc32)c1)Nc1cc(C(F)(F)F)cc(C(F)(F)F)c1          2.99

# value lookup — system NCI-H460 lung, readout growth, item `COc1ccc(CCNC=O)cc1OC` 102

Then `C=C1C(=O)O[C@H]2[C@H]1CC/C(COC(=O)c1cc(OC)c(OC)c(OC)c1)=C\CC[C@@]1(C)O[C@@H]21` ? 16.1

Then CCN(CC)CCNCC(O)Cc1ccc(OC)cc1 (stereo unspecified) ? 107

Then `CN(C)c1ncc(C#Cc2c(F)cccc2F)c2ccccc12` ? 84

Then `COc1ccc(Cl)cc1NC(=O)c1cc2c(n1C)-c1nc(NC(=O)C(C)C)sc1CC2` ? 94

Then `O=[N+]([O-])c1ccc(NS(=O)(=O)c2ccccc2)c2ccccc12` ? 38.2

Then CCOC(=O)C1=C(N)Oc2cc(OC)ccc2C1c1ccc(F)c(F)c1 (stereo unspecified) ? 16.8

Then `C=C1C(=O)O[C@H]2[C@H]1CC/C(COC(=O)OC/C1=C/CC[C@@]3(C)O[C@H]3[C@H]3OC(=O)[C@@H](CN(C)C)[C@@H]3CC1)=C\CC[C@@]1(C)O[C@@H]21` ? 80.1

Then `CCn1c(SC)nnc1-c1cc2c([nH]c3ccccc32)c(-c2cccc(O)c2)n1` ? 9.54

Then CC(C(=O)O)N1C(N)=NNC1c1ccccc1O (stereo unspecified) ? 84.7

Then `Cc1nccc2c3ccc(OCc4cn(Cc5ccc(Br)cc5)nn4)cc3n(CCCc3ccccc3)c12` ? 89.5

Then `O=c1nc(N2CCOCC2)oc2c(-c3cccc4ccccc34)cccc12` ? 110

Then `CCCCC(=O)Nc1nc2ccc(SCCC)cc2s1` ? 32

* * *

test system: UO-31 renal; test: NCI-60 one-dose screen, 48 h (100 = growth as untreated, 0 = no growth, -100 = all killed); settings: 10 µM unless noted
Compounds without any hit were thinned out: in the full panel of roughly 83,000, 20% have a hit.
growth: recorded values
The reply should contain only the number, in %.

Example entries begin here.
>>> print(df.to_string())
                                   molecule  target_or_test_system  unit_descriptor  result_value
0  COc1cc(/C=C2/Oc3cc4occc4c(OC)c3C2=O)ccc1OCC(=O)Nc1ccncc1            UO-31 renal                %          70.3
1  Nc1ncnc2c1c(-c1ccc(Oc3ccccc3)cc1)nn2C[C@H]1SSC[C@@H]1O            UO-31 renal                %          17.4
2  O=S(=O)(CCN1CCOCC1)Nc1cncc(-c2ccc3ncnc(Nc4ccc(F)c(Cl)c4)c3c2)c1            UO-31 renal                %          51.9
3  O=C(Nc1ccc(-n2cc(-c3ccncc3)c(-c3ccc(O)c(Cl)c3)n2)cc1)c1cc(Cl)cc(Cl)c1            UO-31 renal                %          16.4

Suppose we examine the molecule `CCCC(=O)Oc1ccc(/C(=C(\C)c2ccc(OC)cc2)c2ccc(OCCN3CCCCC3)cc2)cc1` ; what growth value has been reported? 65.2

Then `CCn1cc(/C=C2\Oc3cc(OCC#N)ccc3C2=O)c2cc(OC)ccc21` ? 45.7

Then COc1cc(CN(c2ccc(Cl)cc2)C2OC(=O)c3ccccc32)cc(OC)c1OC (stereo unspecified) ? 72.4

Then `COc1cc(C(=O)NNC(=O)c2ccccc2O)cc(OC)c1OC` ? 74.3

Then CCC1(C(N)=O)CC2C=CC1CC2 (stereo unspecified) ? 90.8

Then `Fc1ccc(Nc2ncnc3ccc(-c4cn[nH]c4)cc23)cc1Cl` ? 45.6

Then `O=C(Nc1ccc(-n2ccc3c(NC(=O)c4ccccc4)ncnc32)cc1)Nc1ccc(Cl)c(C(F)(F)F)c1` ? 23.5

Then `c1ccc2c(c1)Oc1cccnc1-n1nccc1-2` ? 101

Then `COc1ccc(-c2cnc(-c3ccc(F)cc3)[nH]2)cc1` ? 84.5

Then `CC(C)(C)OC(=O)NCc1cccc(N=C=S)c1` ? 49.2

Then CC(NCCC(c1ccccc1)c1ccccc1)c1ccccc1 (stereo unspecified) ? 32.6

Then `O=C(Nc1cccc(-n2ccc3c(NC(=O)c4ccccc4)nccc32)c1)c1cccc(C(F)(F)F)c1` ? 22.4

Then `Nc1ccc(S(=O)(=O)Nc2cc(I)cc(I)c2)cc1` ? 99.7

Then `OCc1cn(-c2ccc(Cl)cc2)nc1-c1ccc(O)cc1` ? 63.5

Then `CCn1c(SCC(=O)c2ccc(Br)cc2)nnc1-c1cc2c([nH]c3ccccc32)c(-c2cccc(O)c2)n1` ? 70.4

Then CC(=O)N1N=C(CCC(=O)c2nc3ccc([N+](=O)[O-])cc3[nH]2)OC1c1ccc(O)cc1 (stereo unspecified) ? 80.9

Then `Oc1ccc(O)c(-[n+]2ccccc2)c1` ? 94

* * *

growth: recorded values
tested on: A498 renal; assay: NCI-60 one-dose screen, 48 h (100 = growth as untreated, 0 = no growth, -100 = all killed); conditions: 10 µM unless noted
About 83,000 compounds went through this panel and 20% of them were active in at least one assay; those are over-represented in the sample as a whole.
The reply should contain only the number, in %.

Example entries begin here.
>>> print(df.to_string())
                                   molecule  result_value
0  COc1cc(Br)c(-c2nc(-c3ccccc3)c(-c3ccccc3)n2Cc2ccccc2)cc1OC          73.8
1  Fc1ccc(Nc2ncnc3ccc(-c4cn[nH]c4)cc23)cc1Cl          7.79
2  C=C1c2c(Cl)ccc(O)c2C(O)=C2C(=O)[C@]3(O)C(O)=C(C(N)=O)C(=O)[C@@H](N(C)C)[C@@H]3[C@@H](O)[C@H]12           -10
3  CCOc1ccc(Cc2nccc3cc(OCC)c(OCC)cc23)cc1OCC          35.5
4  CC(=O)N1N=C(CCC(=O)c2nc3ccc([N+](=O)[O-])cc3[nH]2)OC1c1ccc(O)cc1 (centres undefined)           104

Suppose we examine the molecule `COc1ccc(/C=C2/C(=O)Nc3cc(Cl)c(-c4csc(N)n4)cc32)cc1` ; what growth value has been reported? 25.1

Then `CCn1c(C)nc([N+](=O)[O-])c1Sc1nc(N)nc2nc[nH]c12` ? 57

Then `O=C(Nc1ccc(-n2cc(-c3ccncc3)c(-c3ccc(O)c(Cl)c3)n2)cc1)Nc1cc(C(F)(F)F)cc(C(F)(F)F)c1` ? 65.9

Then O=C1CCC(c2c(O)cc(O)c3c(=O)c(O)c(-c4ccc(O)c(O)c4)oc23)N1 (centres undefined) ? 92.1

* * *

tested on: SNB-19 CNS; experiment: NCI-60 one-dose screen, 48 h (100 = growth as untreated, 0 = no growth, -100 = all killed); conditions: 10 µM unless noted
Compounds without any hit were thinned out: in the full panel of roughly 83,000, 20% have a hit. The source made the active and inactive calls. How the source made its calls: active means growth percent below 10; inactive means the rest.
recorded_metric: growth

>>> print(df.to_string())
                                   molecule  target_or_test_system  recorded_metric      result_value
0  CC(C)Cn1cnc2c3ccccc3nc(NCn3nc(-c4cc(Cl)cc(Cl)c4Cl)oc3=S)c21             SNB-19 CNS           growth   111% (inactive)
1  O=S(=O)(Nc1cccc2cc(OS(=O)(=O)c3ccccc3)ccc12)c1ccccc1             SNB-19 CNS           growth  78.2% (inactive)
2                Cc1nc(N)nc(SCc2ccccc2)c1Br             SNB-19 CNS           growth  99.3% (inactive)

Suppose we examine the molecule `Nc1c(C(=O)O)[nH]c(=O)[nH]c1=O` ; what growth value has been reported? 104% (inactive)

Then CCC1S/C(=N\N=C(/C)c2cccs2)N(c2ccccc2)C1=O (stereo not given) ? 114% (inactive)

Then `CN(C)C(=O)Nc1nc2cc(Cl)c(Cl)cc2[nH]1` ? 27% (inactive)

Then COc1ccc(C2=NN(C(=O)COc3ccc(Cl)cc3)C(O)(c3cc(F)c(Cl)cc3Cl)C2)cc1OC (stereo not given) ? 62.7% (inactive)

Then `COc1ccc(-c2cc(-c3nnc(SC/C(=N\O)c4ccccc4)n3-c3ccccc3)c3ccccc3n2)cc1` ? 105% (inactive)

Then `CC(=O)Nc1ccc(OC(=O)c2ccccc2O)cc1` ? 100% (inactive)

Then CN1C(=O)C2(SCC(C(=O)NCC(=O)OC(C)(C)C)N2C(=O)C2CCCCC2)c2ccccc21 (stereo not given) ? 99.2% (inactive)
